Item-by-item account of melting point
Counter-ions that a name gives are not always drawn.
measurement.label: melting point

>  <compound>
C[C@H](NC(=O)c1c(CN2CCC(n3c(=O)[nH]c4ccccc43)CC2)c(-c2ccccc2)nc2ccccc12)C1CCCCC1

>  <experimental.value>
204 to 206 °C

$$$$
>  <compound>
C[C@H](NC(=O)c1c(CN2CCC(C(N)=O)CC2)c(-c2ccccc2)nc2ccccc12)C1CCCCC1

>  <experimental.value>
219 to 221 °C

$$$$
>  <compound>
CC[C@H](NC(=O)c1c(CN2CCC(N3CCOCC3)CC2)c(-c2ccccc2)nc2ccccc12)c1ccccc1

>  <experimental.value>
157 to 165 °C

$$$$
>  <compound>
C[C@H](NC(=O)c1c(CN2CCN(C3=NCCS3)CC2)c(-c2ccccc2)nc2ccccc12)C1CCCCC1

>  <experimental.value>
174 to 176 °C

$$$$
>  <compound>
CC[C@H](NC(=O)c1c(CN2CCN(CCO)CC2)c(-c2ccccc2)nc2ccccc12)c1ccccc1

>  <experimental.value>
142 to 144 °C

$$$$
>  <compound>
C[C@H](NC(=O)c1c(CN2CCC(N3CCCCC3)CC2)c(-c2ccccc2)nc2ccccc12)C1CCCCC1 (as salt: hydrochloride)

>  <experimental.value>
180 to 184 °C

$$$$
>  <compound>
C[C@H](NC(=O)c1c(CN2CCN(Cc3ccccc3)CC2)c(-c2ccccc2)nc2ccccc12)C1CCCCC1 (as salt: HCl)

>  <experimental.value>
176 to 179 °C

$$$$
>  <compound>
CC[C@H](NC(=O)c1c(CN2CCC(N)CC2)c(-c2ccccc2)nc2ccccc12)c1ccccc1

>  <experimental.value>
98 to 102 °C

$$$$
>  <compound>
C[C@H](NC(=O)c1c(CN2CCOCC2)c(-c2ccccc2)nc2ccccc12)C1CCCCC1

>  <experimental.value>
178 to 180 °C

$$$$
>  <compound>
C[C@H](NC(=O)c1c(CN2CCC(N3CCOCC3)CC2)c(-c2ccccc2)nc2ccccc12)C1CCCCC1

>  <experimental.value>
135 to 137 °C

$$$$
>  <compound>
CC[C@H](NC(=O)c1c(CN2CCN(S(=O)(=O)N(C)C)CC2)c(-c2ccccc2)nc2ccccc12)c1ccccc1

>  <experimental.value>
107 to 111 °C (dec.)

$$$$
>  <compound>
CC[C@H](NC(=O)c1c(CN2CCC(N3CCCCC3)CC2)c(-c2ccccc2)nc2cc(OC)ccc12)c1ccccc1 (as salt: hydrochloride)

>  <experimental.value>
208 to 210 °C

$$$$
>  <compound>
CC[C@H](NC(=O)c1c(CN2CCN(S(N)(=O)=O)CC2)c(-c2ccccc2)nc2ccccc12)c1ccccc1

>  <experimental.value>
133 °C (dec.)

$$$$
>  <compound>
CC[C@H](NC(=O)c1c(CN2CCC3(CC2)CNC(=O)C3)c(-c2ccccc2)nc2ccccc12)c1ccccc1

>  <experimental.value>
129 to 131 °C

$$$$
>  <compound>
C[C@H](NC(=O)c1c(CN2CCN(C(=O)CN(C)C)CC2)c(-c2ccccc2)nc2ccccc12)C1CCCCC1

>  <experimental.value>
173 to 175 °C

$$$$
>  <compound>
CC[C@H](NC(=O)c1c(CN2CCN(CCOCCO)CC2)c(-c2ccccc2)nc2ccccc12)c1ccccc1

>  <experimental.value>
158 to 160 °C

$$$$
>  <compound>
C[C@H](NC(=O)c1c(CN2CCC3(CC2)OCCO3)c(-c2ccccc2)nc2ccccc12)C1CCCCC1

>  <experimental.value>
184 to 185 °C

$$$$
>  <compound>
C[C@H](NC(=O)c1c(CN2CCN(CCOCCO)CC2)c(-c2ccccc2)nc2ccccc12)C1CCCCC1

>  <experimental.value>
126 to 128 °C

$$$$
>  <compound>
COc1ccc2c(C(=O)N[C@@H](C)C3CCCCC3)c(CN3CCC(N4CCCCC4)CC3)c(-c3ccccc3)nc2c1

>  <experimental.value>
139 to 144 °C (dec.)

$$$$
>  <compound>
CC[C@H](NC(=O)c1c(CN2CCN(C3CCCCC3)CC2)c(-c2ccccc2)nc2ccccc12)c1ccccc1 (as salt: HCl)

>  <experimental.value>
261 to 263 °C

$$$$
>  <compound>
C[C@H](NC(=O)c1c(CN2CCN(C(=O)c3ccccc3)CC2)c(-c2ccccc2)nc2ccccc12)C1CCCCC1

>  <experimental.value>
150 to 152 °C

$$$$
>  <compound>
CC[C@H](NC(=O)c1c(CN2CCN3CCCC3C2)c(-c2ccccc2)nc2ccccc12)c1ccccc1 (stereo partly shown) (as salt: HCl)

>  <experimental.value>
196 to 198 °C

$$$$
>  <compound>
CC[C@H](NC(=O)c1c(CN2CCN(C(C)=O)CC2)c(-c2ccccc2)nc2ccccc12)c1ccccc1

>  <experimental.value>
117 to 119 °C

$$$$
>  <compound>
CC(C)[C@H](NC(=O)c1c(CN2CCN(C(=O)CCC(=O)O)CC2)c(-c2ccccc2)nc2ccccc12)c1ccccc1

>  <experimental.value>
173 to 175 °C

$$$$
>  <compound>
CC[C@H](NC(=O)c1c(CN2CCC(n3c(=O)[nH]c4ccccc43)CC2)c(-c2ccccc2)nc2ccccc12)c1ccccc1

>  <experimental.value>
195 to 197 °C

$$$$
>  <compound>
CC[C@H](NC(=O)c1c(CN2CCC(N3CCCCC3)CC2)c(-c2ccccc2)nc2c(Cl)c(O)ccc12)c1ccccc1

>  <experimental.value>
209 to 216 °C (dec.)

$$$$
>  <compound>
CC[C@H](NC(=O)c1c(CN2CCC(N3CCCCC3)CC2)c(-c2ccccc2)nc2ccccc12)c1ccccc1 (as salt: HCl)

>  <experimental.value>
182 to 185 °C

$$$$
>  <compound>
CCN(CC)CCC(=O)N1CCN(Cc2c(-c3ccccc3)nc3ccccc3c2C(=O)N[C@H](c2ccccc2)C(C)C)CC1

>  <experimental.value>
120 to 125 °C

$$$$
